Quick reference: composite z-score of the listed items.
molecular target: Torsin-1A-interacting protein 1 (Homo sapiens) (UniProt Q5JTV8); assay: LAP1 binders from COS7 cell lysate, primary screen, small-molecule microarray, 635/667 nm fluorescence (AID 1116); details: COS7-hLAP1 lysate binding, 635 nm fluorescence, higher = more signal
Sequence (Q5JTV8 whole entry, looked up): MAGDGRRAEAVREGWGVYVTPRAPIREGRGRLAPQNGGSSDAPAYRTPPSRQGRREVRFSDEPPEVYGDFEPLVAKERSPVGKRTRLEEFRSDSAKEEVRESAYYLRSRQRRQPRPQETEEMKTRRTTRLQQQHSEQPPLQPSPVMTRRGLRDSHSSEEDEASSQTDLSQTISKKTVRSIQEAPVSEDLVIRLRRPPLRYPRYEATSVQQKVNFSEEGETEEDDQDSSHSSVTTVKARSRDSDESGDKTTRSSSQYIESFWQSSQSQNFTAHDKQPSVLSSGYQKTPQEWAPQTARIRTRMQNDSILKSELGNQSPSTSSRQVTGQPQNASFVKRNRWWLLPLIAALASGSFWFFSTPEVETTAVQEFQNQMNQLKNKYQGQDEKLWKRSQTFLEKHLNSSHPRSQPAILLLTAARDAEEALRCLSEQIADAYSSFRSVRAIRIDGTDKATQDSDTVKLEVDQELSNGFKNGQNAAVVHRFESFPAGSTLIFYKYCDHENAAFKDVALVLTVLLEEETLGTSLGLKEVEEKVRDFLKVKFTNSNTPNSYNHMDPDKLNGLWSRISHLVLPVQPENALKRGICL
quantity-name: composite z-score

| molecule-smiles | quantity-name | reported-value |
| --- | --- | --- |
| CC(C)=NOCc1ccc(-c2cn([C@@H]3COC[C@H]3O)nn2)cc1 | composite z-score | 0.507 |
| CCCNC(=O)OC[C@H]1O[C@H](CCON=C(C)CCC(=O)OC[C@H]2O[C@H](C#Cc3ccccc3)C=C[C@@H]2Oc2ccc(C)cc2)C=C[C@@H]1Oc1ccc(OC)cc1 | composite z-score | -0.492 |
| CC(C)=CCCC(C)=CCON=C1C[C@@H](O)[C@@H](O)[C@@H]2[C@@H]3C(=O)N([C@@H](C)c4ccccc4)C(=O)[C@@H]3CC[C@H]12 | composite z-score | 0.166 |
| Cc1ccc(S(=O)(=O)N[C@H]2COC(=O)[C@@H](C)COC(=O)[C@H](C)NC(=O)CC=C[C@H]2C)cc1 | composite z-score | 1.09 |
| O=C1[C@H]2[C@H]3[C@H](O)[C@H](O)CC(=NOCc4ccccc4)[C@H]3CC[C@H]2C(=O)N1Cc1ccccc1 | composite z-score | 0.197 |
| CCN1C(=O)[C@H]2[C@H]3[C@H](O)[C@H](O)CC(=NOC)[C@@H]3CC[C@H]2C1=O | composite z-score | 0.262 |
| CCCNC(=O)OC[C@H]1O[C@H](CCON=C(C)CCN2CCc3nc(-c4ccccc4)c(-c4ccccc4)cc3C2)C=C[C@@H]1Oc1ccc(OC)cc1 | composite z-score | 0.32 |
